# Test: in vitro
# Test parameters: human
Parameter: viability

Exercise: I would be grateful if you could share the reported viability for "CC(C)(O)c1ccccc1CC[C@@H](SCC1(CC(=O)O)CC1)c1cccc(/C=C/c2ccc3ccc(Cl)cc3n2)c1" .
Key: 86 to 90%
